# Tested on: SK-MEL-2
# Method notes: NCI tumour cell line growth inhibition, 48 h
Active and inactive are the calls of the source. Cut-off read from the data, not from the text of the source: active = GI50 up to about 1.1 µM and inactive = higher.
Readout name: GI50

[[record]]
compound = "CC(C)(C)c1cc(-c2cc(C(C)(C)C)[nH]n2)[nH]n1"
readout_name = "GI50"
result = "> 100 µM (inactive)"

[[record]]
compound = "N#C[BH2-][n+]1ccc(C(=O)NNCc2ccccc2)cc1"
readout_name = "GI50"
result = "> 100 µM (inactive)"

[[record]]
compound = "S=c1c2cn[nH]c2nc2scc(-c3ccc(Cl)cc3)n12"
readout_name = "GI50"
result = "18.2 µM (inactive)"

[[record]]
compound = "CCN(C1=CC(=O)NC2CCCCN12)c1ccccc1 (stereo not given)"
readout_name = "GI50"
result = "> 100 µM (inactive)"

[[record]]
compound = "CN(C)c1snc2c1c(=O)n(C)c(=O)n2C"
readout_name = "GI50"
result = "> 100 µM (inactive)"


---

# System: A498
# Method notes: NCI tumour cell line growth inhibition, 48 h
Calls of active or inactive are those of the source. Rule as the data show it: active = GI50 up to about 1.1 µM and inactive = higher.
Labels: Y for active, N for inactive

[[record]]
compound = "CC(=O)Nc1ccccc1C=C1c2ccccc2-c2ccccc21"
assigned_label = "N"

[[record]]
compound = "Cc1ccc(O)cc1.Cc1cccc(O)c1.Cc1ccccc1O [CRESOL]"
assigned_label = "N"

[[record]]
compound = "Cn1c(-c2ccccc2)cc(-c2cccs2)c1-c1cccs1"
assigned_label = "N"

[[record]]
compound = "COc1ccc(NC(=O)/C(Cc2cc(=O)oc3cc(O)ccc23)=N\\NC(C)(C)C)c(OC)c1"
assigned_label = "N"

[[record]]
compound = "CN1CCN(CCSC2Cc3cc(Cl)ccc3Sc3ccccc32)CC1 (stereo unspecified)"
assigned_label = "N"

[[record]]
compound = "COc1ccc(/C=C/C(=O)c2ccccc2)cc1OC"
assigned_label = "N"

[[record]]
compound = "CN(C)CCOc1ccc2[nH]c(C(=O)N3CC(CCl)c4ccc(N)cc43)cc2c1 (stereo unspecified)"
assigned_label = "Y"

[[record]]
compound = "N#Cc1c(-c2ccco2)c2c(n(C3OC(CO)C(O)C(O)C3O)c1=S)CCCC2 (stereo unspecified)"
assigned_label = "N"

[[record]]
compound = "COc1ccc(/C=N/n2c(Cc3ccc(Cl)cc3)n[nH]c2=O)cc1"
assigned_label = "N"

[[record]]
compound = "CC(=O)N(C(=O)CC(=O)NNCc1ccccc1Cl)c1ccc(Cl)cc1"
assigned_label = "N"

[[record]]
compound = "Cc1c(/C=N/NC(=S)Nc2ccccc2Cl)c(=O)n(-c2ccccc2)n1C"
assigned_label = "N"


---

# System: SF-295
# Method notes: NCI tumour cell line growth inhibition, 48 h
The source made the active and inactive calls. No stated cut-off is given here; in the data, active = GI50 up to about 1.1 µM and inactive = higher.
Labels: active, inactive

[[record]]
compound = "O=C1/C(=C\\c2ccccc2)CN(C(=O)CCN2CCCCC2)C/C1=C/c1ccccc1"
assigned_label = "inactive"

[[record]]
compound = "OC1c2ccccc2C2C(O)c3ccccc3C12 (stereo not given)"
assigned_label = "inactive"

[[record]]
compound = "CC1=C(C(=O)Nc2c(C)cccc2C)C(c2ccccc2Cl)C(C(=O)Nc2c(C)cccc2C)=C(C)N1"
assigned_label = "inactive"

[[record]]
compound = "CCOC(=O)C1C(=O)CC(C)(O)C(C(=O)OCC)C1c1ccc(O)c(OC)c1 (stereo not given)"
assigned_label = "inactive"

[[record]]
compound = "CCOC(=O)C1(C#N)CC1"
assigned_label = "inactive"

[[record]]
compound = "CCOC(=O)N[C@H]1CCc2cc(O)c(OC)c(OC)c2-c2ccc(SC)c(=O)cc21"
assigned_label = "active"

[[record]]
compound = "C1=C(c2ccccc2)C(N2CCOCC2)Oc2ccccc21 (stereo not given)"
assigned_label = "inactive"

[[record]]
compound = "CCCCCCCCCN1CCC(=O)C(C(=O)OC)C1 (stereo not given)"
assigned_label = "inactive"

[[record]]
compound = "Cc1ccc(C(=O)N(C2CCCCC2)C2CCCCC2)cc1/N=N/N(C)C"
assigned_label = "inactive"

[[record]]
compound = "CC1=C(C)C(=O)O[C@@H]([C@](C)(O)[C@]2(O)CC[C@@]3(O)[C@@H]4C[C@H](O)[C@]5(O)[C@@H](O)C=CC(=O)[C@]5(C)[C@H]4CC[C@]23C)C1"
assigned_label = "inactive"

[[record]]
compound = "COC(=O)c1sc2c(Cl)c(Cl)sc2c1Cl"
assigned_label = "inactive"

[[record]]
compound = "CCOC(=O)C(C(=O)OCC)=C1NC2(c3ccccc3Nc3ccccc32)C(C#N)S1 (stereo not given)"
assigned_label = "inactive"

[[record]]
compound = "COc1cc(/C=N\\N(C)C)cc(/C=N/N(C)C)c1O"
assigned_label = "inactive"

[[record]]
compound = "CCOC(=O)c1ccc(/N=C/C=C(\\Nc2ccc(C(=O)OCC)cc2)c2ccc3ccccc3c2)cc1"
assigned_label = "inactive"

[[record]]
compound = "CCOC(=O)NC(=O)c1cn(CCN2CCN(C(=O)NCCCCCCNC(=O)N3CCN(CCn4cc(C(=O)NC(=O)OCC)c(=O)n(CCN(CC)CC)c4=O)CC3)CC2)c(=O)n(CCC(CC)CC)c1=O"
assigned_label = "inactive"

[[record]]
compound = "COc1nc2ccc(Cl)c(C(O)c3ccccc3)c2nc1OC (stereo not given)"
assigned_label = "inactive"

[[record]]
compound = "C[C@]12CC/C(=N\\OCCN3CCCC3)C=C1CCC1C2CC[C@@]2(C)C1CC[C@]2(C)O (stereo not given in full)"
assigned_label = "inactive"

[[record]]
compound = "Sc1nn2c(COc3ccc(Cl)cc3)nnc2s1"
assigned_label = "inactive"

[[record]]
compound = "Cc1nc2c(nc1C)C(=O)c1ccccc1C2=O"
assigned_label = "inactive"

[[record]]
compound = "COc1cccc(CC2C(=O)N/C(=N\\C(C)=O)N2C)c1OC(C)=O (stereo not given)"
assigned_label = "inactive"

